- Run description: Microsomal Stability Assay, mouse liver microsomes
- Assay type: in vitro ADME
- Assay conditions: mouse liver microsomes, 60 min
Reported property: Microsomal Stability Mouse % rem. 60 min

Observe how each entry below is paired with its result.
Molecule | Microsomal Stability Mouse % rem. 60 min
CNC(=O)COc1cnc(N[C@H]2CC[C@@H](Oc3nc(N4CCOCC4)cc4ncccc34)CC2)nc1 | G (% remaining = 50-75%)
CN(C)C(=O)Cn1c(=O)n(C2CCOCC2)c2nc(N[C@H]3CC[C@@H](Oc4nc(N5CCOCC5)cc5ncccc45)CC3)ncc21 | F (% remaining = 25-50%)
O=C(Nc1ccccc1)N[C@H]1CC[C@@H](Oc2nc(N3CCOCC3)cc3ncccc23)CC1 | E (% remaining = 0-25%)
CS(=O)(=O)NCCOc1cnc(N[C@H]2CC[C@@H](Oc3nc(N4CCOCC4)cc4ncccc34)CC2)nc1 | G (% remaining = 50-75%)
CN1CCN(C(=O)COc2cnc(N[C@H]3CC[C@@H](Oc4nc(N5CCOCC5)cc5ncccc45)CC3)nc2)CC1 | F (% remaining = 25-50%)

Indicate its recorded Microsomal Stability Mouse % rem. 60 min; the molecule in question is CN(C)C(=O)COc1cnc(N[C@H]2CC[C@@H](Oc3nc(N4CCOCC4)cc4ncc(NS(C)(=O)=O)cc34)CC2)nc1
G (% remaining = 50-75%)

Read off the recorded Microsomal Stability Mouse % rem. 60 min for NCCOc1cnc(N[C@H]2CC[C@@H](Oc3nc(N4CCOCC4)cc4ncccc34)CC2)nc1
G (% remaining = 50-75%)
